As shown below, each of these compounds has a reported TGI value.
system: NCI-H460 lung; assay: NCI tumour cell line growth inhibition, 48 h

compound	TGI
CC(C)C1N2CCCCC2[C@@H]2c3[nH]c4ccccc4c3CCN12 (some centres undefined)	> 100 µM
CCn1ccc(NS(=O)(=O)c2ccc(N)cc2)nc1=O	> 100 µM
CN(C)CCNC(=O)NC[C@H]1CC[C@@H]2[C@H](O1)c1cc(C(F)(F)F)ccc1N[C@H]2c1ccccc1	11.8 µM

The measured TGI associated with `C=C1Cc2cc(OC)c(OC)c(OC)c2-c2ccc(SC)c(=O)cc21` reads < 0.035 µM

---

system: 786-0 renal; test: NCI tumour cell line growth inhibition, 48 h
observed.property: TGI

Here's what some known entries look like.
molecule	TGI
C=C(CCCO)[C@@H]1CC[C@@](C)(O)[C@H]1C	> 100 µM
COc1cc(C2c3c(ccc4ccccc34)C(=O)C3CCC(=O)N32)cc(OC)c1O (stereo not drawn)	> 25 µM

The measured TGI associated with `Clc1c2ccccc2nc2c1[nH]c1ccccc12` reads > 100 µM

The reported measurements were obtained from PubChem BioAssay (NCI).
